Hello, the source for this data is BigSolDB 2.1, in case you need it.

- TEST_CONDITIONS: in propylene glycol, 303.15 K
OUTCOME_MEASURE: solubility (mole fraction)

GIVEN_SMILES | OUTCOME_MEASURE | OBSERVED_MEASUREMENT
COc1cc(/C=C/C(=O)CC(=O)/C=C/c2ccc(O)c(OC)c2)ccc1O | solubility (mole fraction) | 0.00143

###

- TEST_CONDITIONS: in ethanol, 288.15 K
OUTCOME_MEASURE: solubility (mole fraction)

GIVEN_SMILES | OUTCOME_MEASURE | OBSERVED_MEASUREMENT
COc1cc(/C=C/C(=O)CC(=O)/C=C/c2ccc(O)c(OC)c2)ccc1O | solubility (mole fraction) | 0.000573
